Items are presented alongside their recorded TGI LOVO.
Test system: LoVo
Assay: SRB colorimetric assay of cell growth and viability, LoVo
Type: cell-based, human
Conditions: 48 hours exposure, SRB
Where a SMILES comes first, the peptide text is derived from it. Bridges are numbered along the chain shown (N, C = ends). [ ]: non-standard residue; d: D form. The star is where a group is joined. d(aIle) = CC[C@H](C)[C@@H](N)C(=O)O; d(aThr) = C[C@@H](O)[C@@H](N)C(=O)O; Hexanoyl(5-Me) = CC(C)CCCC(=O)*; Orn = NCCC[C@H](N)C(=O)O; Dhb = C/C=C(\N)C(=O)O
Numeric only. Scale: Molar

molecule	property-name	endpoint-value
C/C=C1\NC(=O)[C@H](Cc2ccccc2)NC(=O)[C@@H](C(C)C)NC(=O)[C@@H]([C@@H](C)CC)NC(=O)[C@H](NC(=O)[C@H](NC(=O)[C@H](CCCN)NC(=O)[C@H]2CCCN2C(=O)[C@H](NC(=O)[C@@H](NC(=O)[C@H](CCCN)NC(=O)CCCC(C)C)C(C)C)C(C)C)[C@@H](C)CC)[C@@H](C)OC(=O)[C@H](C(C)C)NC1=O [Compound 57, [Orn^12, noD-Val^13]-KF] ({Hexanoyl(5-Me)}-[Orn]V[dV][dP][Orn][d(aIle)][d(aThr)][d(aIle)][dV]F[Dhb]V; ester 7-C)	TGI LOVO	7.18E−06

For the molecule C/C=C1\NC(=O)[C@H](Cc2ccccc2)NC(=O)[C@@H](C(C)C)NC(=O)[C@@H]([C@@H](C)CC)NC(=O)[C@H](NC(=O)[C@H](NC(=O)[C@H](CCCN)NC(=O)[C@H]2CCCN2C(=O)[C@H](NC(=O)[C@@H](NC(=O)[C@@H](NC(=O)[C@H](NC(=O)CC[C@@H](C)CC)C(C)C)[C@@H](C)OC(=O)C(F)(F)F)C(C)C)C(C)C)[C@@H](C)CC)[C@@H](C)OC(=O)[C@H](C(C)C)NC1=O , give its reported TGI LOVO.
3.26E−07
